Tested on: corn root sections
Assay: Nitrate ion uptake by corn root sections (nitrate ion specific electrode)
Format: cell-based, Corn (Pioneer Hybrid 3320)
Details: 50 ppm test compound; corn root sections
ASSAY ENDPOINT: Ion Uptake (percent increase over control) NO3- (%)

| MOL SMILES | RESULT |
| --- | --- |
| CC(C)[C@@H](CO)NC(=O)[C@@H]1CCCN1C(=O)OCc1ccccc1 | 65 |
| CC(C)C[C@@H](CO)NC(=O)[C@@H]1CCCN1C(=O)OCc1ccccc1 | 40 |
| CC(C)[C@@H](CO)NC(=O)[C@@H]1CCCN1C(=O)OCc1ccc(F)cc1 | 30 |
| Cc1ccc(COC(=O)N2CCC[C@H]2C(=O)N[C@H](CO)C(C)C)cc1 | 39 |
| O=C(NCCO)[C@@H]1CCCN1C(=O)OCc1ccccc1 | 30 |
| CC[C@H](CO)NC(=O)[C@@H]1CCCN1C(=O)OCc1ccccc1 | 41 |
| CC[C@@H](CO)NC(=O)[C@@H]1CCCN1C(=O)OCc1ccccc1 | 24 |
| CC(C)[C@H](CO)NC(=O)[C@H]1CCCN1C(=O)OCc1ccccc1 | 36 |
